Values were extracted from patent US12454521B2.

Where a name gives a salt, the structure may show the parent alone.
Reported Kd values, CRBN-DDB1 (Homo sapiens, UniProt Q96SW2).

{"columns": ["compound", "Kd"],
 "data": [
  ["O=C1CCN(c2ccc(C3CCNCC3)[nH]c2=O)C(=O)N1", "< 30 µM"],
  ["O=C1CCN(c2cccc(C3CCNCC3)c2)C(=O)N1 [Compound 12, hydrochloride]", "< 100 µM"],
  ["Cn1nc(N2CCC(=O)NC2=O)c2ccc(Br)cc21", "< 50 µM"],
  ["O=C1CCN(Cc2ccc(C3CCNCC3)cc2)C(=O)N1 [Compound 14, TFA]", "< 30 µM"],
  ["O=C1CCN(c2ccc(N3CCNCC3)cc2)C(=O)N1 [Compound 10, hydrochloride]", "< 100 µM"],
  ["O=C1CCN(c2ccc(N3CCNCC3)nc2)C(=O)N1 [Compound 1, Hydrochloride]", "< 30 µM"],
  ["O=C1CCN(c2ccc(C3CCNCC3)c(=O)[nH]2)C(=O)N1 [Compound 5, Hydrochloride]", "< 100 µM"],
  ["O=C1CCN(c2ccc(C3CCNCC3)cc2)C(=O)N1 [Compound 11, hydrochloride]", "< 100 µM"]
]}
